- Test system: Pseudomonas aeruginosa MB9798 vs MB9799
- condition.info: ratio MITC95 PA_9798/MITC95 PA_9799

{"sample.smiles": "Nc1nc2c(-c3ccc(S(=O)(=O)N4CCNCC4)c(S(N)(=O)=O)c3-c3nn[nH]n3)cccc2o1", "Efflux ratio": 2.00}
{"sample.smiles": "Nc1nc2c(-c3ccc(S(=O)(=O)N[C@H]4CNC[C@H]4O)c(S(N)(=O)=O)c3-c3nnn[nH]3)cccc2[nH]1", "Efflux ratio": 0.70}
{"sample.smiles": "Nc1ncccc1-c1ccc(S(=O)(=O)NC[C@@H]2CNCCN2)c(S(N)(=O)=O)c1-c1nn[nH]n1", "Efflux ratio": 2.00}
{"sample.smiles": "Nc1nc2c(-c3ccc(S(=O)(=O)N[C@H]4CN[C@@H](C(=O)O)C4)c(S(N)(=O)=O)c3-c3nnn[nH]3)cccc2s1", "Efflux ratio": 0.50}

###

- System: Pseudomonas aeruginosa MB9798 vs MB9799
- condition.info: ratio MITC95 PA_9798/MITC95 PA_9799

{"compound": "Nc1nc2c(-c3ccc(S(=O)(=O)NC4CCC5OC4CC5N)c(S(N)(=O)=O)c3-c3nnn[nH]3)cccc2s1.O=C(O)C(F)(F)F (stereo not drawn) [Example 95]", "Efflux ratio": 1.00}
{"compound": "Nc1nc2c(-c3ccc(S(=O)(=O)NC[C@H]4CNCCN4)c(S(N)(=O)=O)c3-c3nn[nH]n3)cccc2[nH]1 [Example 314]", "Efflux ratio": 1.00}
{"compound": "C[C@H](CCN)NS(=O)(=O)c1ccc(-c2cccc3[nH]c(N)nc23)c(-c2nn[nH]n2)c1S(N)(=O)=O [Example 266]", "Efflux ratio": 0.50}

###

- assayed.system: UniProtKB P52699
- Sequence (P52699 whole entry, looked up, species assumed): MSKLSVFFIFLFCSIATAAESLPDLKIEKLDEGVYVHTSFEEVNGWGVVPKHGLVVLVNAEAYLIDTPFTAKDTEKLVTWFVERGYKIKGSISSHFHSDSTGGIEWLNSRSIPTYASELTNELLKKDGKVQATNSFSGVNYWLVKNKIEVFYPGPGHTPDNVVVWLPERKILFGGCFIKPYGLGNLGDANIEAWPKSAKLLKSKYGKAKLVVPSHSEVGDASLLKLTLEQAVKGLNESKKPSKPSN
- assay.text: biochemical
- Assay type: biochemical
- condition.info: fluorescence assay, CCF2-FA substrate, 2 pM enzyme, 2 hours at 25° C.; read-out: IMP-1 IC50
Catalogue of compounds with associated IC50

{"compound": "NC(=O)c1csc(Nc2cccc(-c3ccc(S(=O)(=O)N[C@@H]4CCNC4)c(S(N)(=O)=O)c3-c3nn[nH]n3)c2)n1", "IC50": "0.111 nM"}
{"compound": "C[N+](C)(C)CCCNS(=O)(=O)c1ccc(-c2cccc3sc(N)nc23)c(-c2nnn[nH]2)c1S(N)(=O)=O.O=C([O-])C(F)(F)F [Example 392, trifluoroacetate]", "IC50": "0.221 nM"}
{"compound": "NS(=O)(=O)c1ccc(-c2cccc3cn[nH]c23)c(-c2nn[nH]n2)c1S(N)(=O)=O", "IC50": "0.233 nM"}
{"compound": "Nc1nc2c(-c3ccc(S(=O)(=O)N[C@@H]4CN[C@@H](CO)C4)c(S(N)(=O)=O)c3-c3nnn[nH]3)cccc2[nH]1", "IC50": "1.66 nM"}
{"compound": "Nc1nc(-c2cccc(-c3ccc(S(=O)(=O)N[C@@H]4CCNC4)c(S(N)(=O)=O)c3-c3nn[nH]n3)c2)n[nH]1", "IC50": "0.376 nM"}
{"compound": "CC1(CN)CN(S(=O)(=O)c2ccc(-c3cccc4sc(N)nc34)c(-c3nnn[nH]3)c2S(N)(=O)=O)C1.O=C(O)C(F)(F)F [Example 101, 2,2,2-trifluoroacetate]", "IC50": "1.25 nM"}
{"compound": "Nc1ccc(-c2ccc(S(=O)(=O)N[C@H]3CCNC3)c(S(N)(=O)=O)c2-c2nn[nH]n2)cn1", "IC50": "0.523 nM"}
{"compound": "NCCNS(=O)(=O)c1ccc(-c2ccnc(N)c2)c(-c2nn[nH]n2)c1S(N)(=O)=O", "IC50": "1.42 nM"}
{"compound": "Nc1nc2c(-c3ccc(S(=O)(=O)NC[C@@H]4CCCN4)c(S(N)(=O)=O)c3-c3nn[nH]n3)cccc2[nH]1", "IC50": "0.925 nM"}
{"compound": "NCCNS(=O)(=O)c1ccc(-c2cccc(NC[C@H](N)CO)c2)c(-c2nn[nH]n2)c1S(N)(=O)=O", "IC50": "4.4 nM"}
{"compound": "Nc1nc2c(-c3ccc(S(=O)(=O)NC4CC5CNC4C5)c(S(N)(=O)=O)c3-c3nnn[nH]3)cccc2s1 (centres unmarked) [Example 89]", "IC50": "0.568 nM"}
{"compound": "Nc1nc2c(-c3ccc(S(=O)(=O)NC4C5CNCC54)c(S(N)(=O)=O)c3-c3nnn[nH]3)cccc2s1.O=C(O)C(F)(F)F (centres unmarked) [Example 111, 2,2,2-trifluoroacetate]", "IC50": "0.429 nM"}
{"compound": "CN1CC(NS(=O)(=O)c2ccc(-c3cccc4[nH]c(N)nc34)c(-c3nn[nH]n3)c2S(N)(=O)=O)C1", "IC50": "0.609 nM"}
{"compound": "Nc1nc(-c2cccc(-c3ccc(S(=O)(=O)N[C@H]4CNC[C@H]4N)c(S(N)(=O)=O)c3-c3nn[nH]n3)c2)c[nH]1", "IC50": "1.41 nM"}
{"compound": "NCCOCCNS(=O)(=O)c1ccc(-c2cccc3sc(N)nc23)c(-c2nnn[nH]2)c1S(N)(=O)=O", "IC50": "0.199 nM"}
{"compound": "Nc1nc2c(-c3ccc(S(=O)(=O)NC4CCNCC4)c(S(N)(=O)=O)c3-c3nn[nH]n3)cccc2[nH]1", "IC50": "0.648 nM"}
{"compound": "NC(=O)[C@@H](N)CNS(=O)(=O)c1ccc(-c2cccc3[nH]c(N)nc23)c(-c2nn[nH]n2)c1S(N)(=O)=O", "IC50": "0.615 nM"}
{"compound": "NCCNS(=O)(=O)c1ccc(-c2cccc3[nH]c(CN)nc23)c(-c2nn[nH]n2)c1S(N)(=O)=O", "IC50": "1.37 nM"}
{"compound": "CC1(NS(=O)(=O)c2ccc(-c3cccc4sc(N)nc34)c(-c3nnn[nH]3)c2S(N)(=O)=O)CCCNC1 (centres unmarked)", "IC50": "0.554 nM"}
{"compound": "NCCNS(=O)(=O)c1ccc(-c2cccc3ccc(N)nc23)c(-c2nn[nH]n2)c1S(N)(=O)=O", "IC50": "0.2 nM"}
{"compound": "NCCNC(=O)c1cc(-c2ccc(S(=O)(=O)NCCN)c(S(N)(=O)=O)c2-c2nn[nH]n2)ccc1N", "IC50": "4.02 nM"}
{"compound": "Cl.Cn1c(N)nc2c(-c3ccc(S(=O)(=O)NCCN)c(S(N)(=O)=O)c3-c3nn[nH]n3)cccc21 [Example 10, hydrochloride]", "IC50": "0.235 nM"}
{"compound": "NC[C@@H](N)CNS(=O)(=O)c1ccc(-c2cccc(-c3n[nH]c(N)n3)c2)c(-c2nn[nH]n2)c1S(N)(=O)=O", "IC50": "0.357 nM"}
{"compound": "N[C@@H]1CNC[C@@H]1NS(=O)(=O)c1ccc(-c2cccn3ccnc23)c(-c2nn[nH]n2)c1S(N)(=O)=O", "IC50": "0.34 nM"}
{"compound": "CN(C)C1CN(S(=O)(=O)c2ccc(-c3cccc4sc(N)nc34)c(-c3nnn[nH]3)c2S(N)(=O)=O)C1", "IC50": "0.878 nM"}
{"compound": "Nc1nc2c(-c3ccc(S(=O)(=O)NC[C@H]4CCNC4)c(S(N)(=O)=O)c3-c3nn[nH]n3)cccc2[nH]1", "IC50": "0.836 nM"}

###

- assayed.system: UniProtKB C7C422
- Sequence (C7C422 whole entry, looked up, species assumed): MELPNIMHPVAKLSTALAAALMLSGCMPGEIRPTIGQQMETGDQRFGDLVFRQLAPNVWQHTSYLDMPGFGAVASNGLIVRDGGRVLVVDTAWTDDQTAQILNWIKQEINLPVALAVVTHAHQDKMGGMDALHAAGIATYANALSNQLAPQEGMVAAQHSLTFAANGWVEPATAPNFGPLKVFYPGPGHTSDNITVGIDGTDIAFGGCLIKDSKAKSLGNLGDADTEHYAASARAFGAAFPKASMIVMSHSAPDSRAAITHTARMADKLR
- assay.text: biochemical
- Type: biochemical
- condition.info: fluorescence assay, CCF2-FA substrate, 1 pM enzyme, 2 hours at 25° C.; read-out: NDM-1 IC50
Catalogue of compounds with associated IC50

{"compound": "NCC(F)(F)c1nc2c(-c3ccc(S(=O)(=O)N[C@H]4CCNC4)c(S(N)(=O)=O)c3-c3nn[nH]n3)cccc2[nH]1", "IC50 (nM)": 0.0569}
{"compound": "NCC(F)(F)CNS(=O)(=O)c1ccc(-c2cccc3sc(N)nc23)c(-c2nnn[nH]2)c1S(N)(=O)=O", "IC50 (nM)": 0.0658}
{"compound": "Cc1ccc(-c2ccc(S(=O)(=O)NCCN)c(S(N)(=O)=O)c2-c2nn[nH]n2)c2nc(N)[nH]c12", "IC50 (nM)": 0.0153}
{"compound": "Nc1nc2c(-c3ccc(S(=O)(=O)N4CC[S+]([O-])CC4)c(S(N)(=O)=O)c3-c3nnn[nH]3)cccc2s1", "IC50 (nM)": 0.872}
{"compound": "Cl.Cn1c(N)nc2c(-c3ccc(S(=O)(=O)NCCN)c(S(N)(=O)=O)c3-c3nn[nH]n3)cccc21 [Example 10, hydrochloride]", "IC50 (nM)": 0.0901}
{"compound": "CNS(=O)(=O)c1ccc(-c2cccc3sc(N)nc23)c(-c2nn[nH]n2)c1S(N)(=O)=O", "IC50 (nM)": 0.072}
{"compound": "Nc1nc2c(-c3ccc(S(=O)(=O)NCCC(N)CF)c(S(N)(=O)=O)c3-c3nnn[nH]3)cccc2s1.O=CO (stereo not shown) [Example 123, formate]", "IC50 (nM)": 0.036}
